Test: NCI Yeast Anticancer Drug Screen. Data for the sgs1 mgt1 strain (AID 161);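 note: 0% = growth of cultures given vehicle only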
Conditions: S. cerevisiae sgs1 mgt1 strain, at 50.0 µM, hits give high values
Method: Growth inhibition of yeast strains with defined genetic alterations is measured as a screen for potential anti-cancer activity. Selected strains with alterations in DNA damage repair or cell cycle control were exposed to compounds and growth inhibition was measured relative to vehicle treated controls. The strain used in this assay is sgs1 mgt1
About 79,000 compounds went through this panel and 15% of them were active in at least one assay; those are over-represented in the sample as a whole.
Short version: growth inhibition at least 10% is met, less is not met.

>>> label_class("CC(C)(C)NN=C1C(C)(C)C(=NNC(C)(C)C)C1(C)C")
"not met"
>>> label_class("O=C1C2CC3C(C2)C13")
"not met"
>>> label_class("c1ccc(-c2cc3nc4ccccc4nc3o2)cc1")
"not met"
>>> label_class("CC1=CC(C)(C)N=C2SC(c3ccc(Cl)cc3)=NN12")
"met"
>>> label_class("N#CC1=C(c2ccccc2)C(=C2Nc3ccccc3N2)C2S/C(=C\\c3ccccc3)C(=O)N2C1=N (stereo unspecified)")
"met"
>>> label_class("CCC1([N+](=O)[O-])COC2(CCCCC2)OC1")
"not met"
>>> label_class("CC(=O)OCC1OC(n2c3c(c(-c4ccc(Cl)cc4)c(C#N)c2=S)C(=O)CC(C)(C)C3)C(OC(C)=O)C(OC(C)=O)C1OC(C)=O (stereo unspecified)")
"met"
>>> label_class("O=C(NCCCCCCNC(=O)Nc1cccc2ccccc12)Nc1cccc2ccccc12")
"not met"
>>> label_class("CCN(CC)CCCNc1c2c(nc3c(OC)cccc13)CCCC2")
"not met"
>>> label_class("Cc1cc2c(C)nn(Cc3ccc(Cl)cc3Cl)c2c(C#N)c1C")
"met"
>>> label_class("CCN(CC)CCOc1ccc(/C=C(\\C#N)c2ccc(OCCN(CC)CC)cc2)cc1")
"met"

###

Assay: NCI Yeast Anticancer Drug Screen. Data for the cln2 rad14 strain (AID 165);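 note: 0% = growth equal to vehicle treated cultures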
Settings: S. cerevisiae cln2 rad14 strain, at 50.0 µM, hits give high values
About 79,000 compounds went through this panel and 15% of them were active in at least one assay; those are over-represented in the sample as a whole.
result.type: growth inhibition (%)

>>> endpoint_result("CC1=NNC(=O)C2CCC(=O)N12 (centres undefined)")
11.1
>>> endpoint_result("CC(=O)Nc1ccc(S(=O)(=O)N/N=C\\CC(C)C)cc1")
-6.95
>>> endpoint_result("Fc1ccc(C(c2ccc(F)cc2)C(F)(F)F)cc1")
10.8
>>> endpoint_result("CCCCCCC1CCCCC1")
19.9
>>> endpoint_result("c1ccc(C2=NC(c3ccccc3)(c3ccccc3)N=C2c2ccccc2)cc1")
-10.1
>>> endpoint_result("N#CC1C=Cc2ccccc2N1C(=O)Oc1ccccc1 (centres undefined)")
18.6
>>> endpoint_result("C=CC1(c2ccc(Cl)c(Cl)c2)OCCO1")
-6.5
>>> endpoint_result("CCC1=C(C(C)=O)[C@@H]2CCCCC(C(=O)OC)[C@@H]2C1=O (some centres undefined)")
19.7
>>> endpoint_result("CCOC(=O)c1c(C)c2c(n1C)CCC(CCC(C)=O)C2=O (centres undefined)")
14.3
>>> endpoint_result("c1ccc(CC2NCCc3c2[nH]c2ccccc32)cc1 (centres undefined)")
-6.2
>>> endpoint_result("O=[N+]([O-])c1cccc(-c2cc(-c3cccs3)cc(-c3ccccc3)n2)c1")
-1.4
>>> endpoint_result("CSc1nn(C)c2cc(C)c3ccccc3[n+]12")
7.25
>>> endpoint_result("CCOC(=O)C1=C(C)NC(C)=C(C(=O)OCC)C1c1c(C)noc1C")
19.3
>>> endpoint_result("COc1ccc(-c2cc(=O)cc(C(N)=O)o2)cc1")
-13.8
>>> endpoint_result("Cc1ccc(NC(=O)CC/C(CC(=O)C(C)(C)C)=N\\Nc2ccc([N+](=O)[O-])cc2[N+](=O)[O-])cc1C")
4
>>> endpoint_result("O=[N+]([O-])c1ccc(/C(=N/Nc2ccccc2)c2ccc(Cl)cc2)cc1")
-14.1
>>> endpoint_result("CCCCCC(=O)O")
26.9
>>> endpoint_result("CCCCCCC(C)N1C(=O)c2ccccc2C1=O (centres undefined)")
-39.1
>>> endpoint_result("O=C1CCCCC1C(Nc1ccccc1)c1ccccc1 (centres undefined)")
15.8
>>> endpoint_result("Ic1ccc(-c2ccccc2)cc1")
-57.7
>>> endpoint_result("CC(=O)Nc1cc([N+](=O)[O-])c2[nH]c(=O)c3ccccc3c2c1")
-9.45
>>> endpoint_result("CCOC(=O)c1cc2c(C(=O)c3ccc([N+](=O)[O-])cc3)c(C(C)=O)ccc2[nH]1")
-3.55
>>> endpoint_result("COc1ccc(C(O)C(C)(C(=O)O)c2ccccc2)cc1 (centres undefined)")
-6.35
>>> endpoint_result("CC1(C)S[C@@H]2[C@H](NC(=O)C3(N)CCCCC3)C(=O)N2[C@H]1C(=O)O")
-5.65

###

Experiment: NCI Yeast Anticancer Drug Screen. Data for the cln2 rad14 strain (AID 165);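 note: 0% = growth equal to vehicle treated cultures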
Settings: S. cerevisiae cln2 rad14 strain, at 50.0 µM, hits give high values
Compounds without any hit were thinned out: in the full panel of roughly 79,000, 15% have a hit.
result.type: growth inhibition (%)

>>> endpoint_result("CCOC(=O)NN(C/C(Cl)=C/Cl)C/C(Cl)=C/Cl")
-46.8
>>> endpoint_result("CC(=O)Nc1cc2c(cc1[N+](=O)[O-])-c1ccc([N+](=O)[O-])cc1C2=O")
3.2
>>> endpoint_result("O=C(O)/C(=C/c1ccccc1[N+](=O)[O-])c1cccs1")
21.1
>>> endpoint_result("CC(=O)Oc1cc(C=O)ccc1O")
1.65
>>> endpoint_result("O=C(O)c1c(Br)c(Br)c(Br)c(Br)c1C(=O)Nc1ccccc1C(F)(F)F")
-2.75
>>> endpoint_result("OC1Cn2cc(Br)c[n+]2C1 (stereo unspecified)")
1.2
>>> endpoint_result("CC(=O)CC(=O)Nc1ccccc1C")
-27.4
>>> endpoint_result("N=C1N=Nc2nc(CC(=O)c3ccc(Cl)cc3Cl)c(O)n21")
-31.5
>>> endpoint_result("CCN(CC)CCC(C)C(Cc1cccs1)OC(C)=O (stereo unspecified)")
-39
>>> endpoint_result("Cc1cccc(C)c1N=Nc1sc(N)nc1C")
-29.9
>>> endpoint_result("CS(=O)(=O)OCCC(O)COS(C)(=O)=O (stereo unspecified)")
-55
>>> endpoint_result("C=CC(C)(CCC=C(C)C)OC(C)=O (stereo unspecified)")
1.9
>>> endpoint_result("COc1ccc(C(C)c2cc(OC)c(OC)cc2OC)cc1 (stereo unspecified)")
-29.2
>>> endpoint_result("C=CCCCCCCCCC1OCC(CC)C(CCC)O1 (stereo unspecified)")
47.5
>>> endpoint_result("Cc1ccnc(C2=C(O)c3ccccc3C2=O)c1")
1.15
>>> endpoint_result("CC1(C)CC(=NNC(N)=S)CC(C)(C)N1")
-51.9
>>> endpoint_result("NC(=O)NNC(=O)NC12CC3CC(CC(C3)C1)C2")
-45.8
>>> endpoint_result("COc1cc(CN2CCCCC2)cc2cc(C(=O)O)c(=O)oc12")
-1.15
>>> endpoint_result("COCC(O)CN1CCN(c2ccccc2OC)CC1 (stereo unspecified)")
-14.2
>>> endpoint_result("Clc1ccccc1C(CI)c1ccccc1Cl")
13.4
>>> endpoint_result("CC(=O)Nc1ccc(OCc2ccccc2)cc1[N+](=O)[O-]")
10.2
>>> endpoint_result("Clc1cccc(-c2sc(-c3ccsc3)cc2Cc2ccsc2)c1")
-28.6
>>> endpoint_result("COc1c2occc2c(N)c2ccc(=O)oc12")
-14.5
>>> endpoint_result("Nc1nc(N)c2nc(CNc3ccc(C(=O)NC(CCCNC(=O)c4ccccc4C(=O)O)C(=O)O)cc3)cnc2n1 (stereo unspecified)")
-28.3
>>> endpoint_result("Cc1ccc2c(c1)C(=O)/C(=N/Nc1ccc(Cl)cc1)CCO2")
-2
>>> endpoint_result("NC(CC(=O)O)c1ccc(Cl)cc1 (stereo unspecified)")
-8.3

###

Assay: NCI Yeast Anticancer Drug Screen. Data for the cln2 rad14 strain (AID 165);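 note: 0% = growth equal to vehicle treated cultures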
Details: S. cerevisiae cln2 rad14 strain, at 50.0 µM
Compounds without any hit were thinned out: in the full panel of roughly 79,000, 15% have a hit. The source made the active and inactive calls. No stated cut-off is given here; in the data, active means growth inhibition above about 70%; inactive means the rest.
Possible outcomes: t = active, f = inactive

>>> label_class("Nc1cc(C(Br)(Br)Br)nc2ccccc12")
"f"
>>> label_class("CN(C)c1ccc(N=Nc2ccc(C(C)(C)C)cc2)cc1")
"f"
>>> label_class("O=C(NCCCCCCNC(=O)OCOC(=O)NCCCCCCNC(=O)Nc1ccc(SCCO)cc1)Nc1ccc(SCCO)cc1")
"f"
>>> label_class("S=c1[nH]c2ccccc2n1CCc1ccncc1")
"f"
>>> label_class("Clc1ccc(C(Cl)(c2ccc(Cl)cc2)C(Cl)(Cl)Cl)cc1")
"f"
>>> label_class("CCCN(CCC)S(=O)(=O)c1ccc(NC(=O)OC(CC)c2ccco2)cc1 (stereo not given)")
"f"
>>> label_class("CC(C)(C)OC(=O)NCS(=O)(=O)N(Cc1ccccc1)Cc1ccccc1")
"t"
>>> label_class("CCCCCCCCCCCCCCCOc1ccc2ccccc2c1")
"f"
>>> label_class("CC1(C)COC(C)(Cc2ccccc2)OC1")
"f"
>>> label_class("N=C1N=Nc2nc(C(C(=O)c3cccc4ccccc34)c3nc4n(c3O)C(=N)N=N4)c(O)n21 (stereo not given)")
"f"
>>> label_class("N#Cc1[nH]cnc1N")
"f"
>>> label_class("CCN(CC)CCN(CC)CCN(CC)CC")
"f"
>>> label_class("CCc1cc(C)cc(CC)c1N")
"f"
>>> label_class("COc1ccc([N+](=O)[O-])c2c(C)cc(=O)[nH]c12")
"f"
>>> label_class("CCOC(=O)CCC(NC(=O)c1ccc(NC)c([N+](=O)[O-])c1)C(=O)OCC (stereo not given)")
"f"
>>> label_class("NC(CC(F)(F)F)C(=O)O (stereo not given)")
"f"
>>> label_class("CC(=O)Oc1ccc2c(c1)CC[C@@H]1C2[C@@H](O[N+](=O)[O-])C[C@@]2(C)C1CC[C@@H]2O (stereo not given in full)")
"f"
>>> label_class("CCN(CC)c1nc(=O)c(C(=O)C(C)(C)C)c(C(C)(C)C)o1")
"f"
>>> label_class("CC(=O)Nc1ccc2ccccc2c1SC1CC(=O)N(c2ccccc2)C1=O (stereo not given)")
"f"
>>> label_class("COc1cc(/C=C2\\C(=O)N(C(=O)c3ccc(NC(C)=O)cc3)N=C2C)ccc1O")
"f"
>>> label_class("CCC(CC)C1OCC(O)CO1 (stereo not given) (tested in a mixture with another compound)")
"f"
>>> label_class("COc1ccc(C(C#N)N(C)C)cc1OC (stereo not given)")
"f"
>>> label_class("CC(=O)c1ccc2c(c1)-c1ccc(C(C)=O)cc1-2")
"f"
>>> label_class("COc1ccc(/C(=N/N)c2ccccc2)cc1")
"f"
>>> label_class("OCc1ccccc1CO")
"f"
>>> label_class("CCN(CC)CC(O)Cn1cnc2c(SC)ncnc21 (stereo not given)")
"f"
>>> label_class("COc1cc(C[S+]2CCCC2)c(SC)cc1C[S+]1CCCC1")
"f"
>>> label_class("CC1(C(=O)O)CCC2(C)CCC3(C)C(=CC(=O)C4C5(C)CCC(OC6OC(C(=O)O)C(O)C(O)C6OC6OC(C(=O)O)C(O)C(O)C6O)C(C)(C)C5CCC43C)C2C1 (stereo not given)")
"f"
>>> label_class("Cc1ccc(N=Nc2ccc(C)cc2NC(=O)CCl)cc1")
"f"
>>> label_class("O=[N+]([O-])c1cccc(S(=O)(=O)SSS(=O)(=O)c2cccc([N+](=O)[O-])c2)c1")
"f"
>>> label_class("CC(C)[C@@H]1CC[C@@H](C)C[C@H]1OC(=O)/C=C1\\C(C(=O)O[C@@H]2C[C@H](C)CC[C@H]2C(C)C)[C@H]2C=C[C@@H]1O2 (stereo not given in full)")
"f"
>>> label_class("Cc1cccc(N=Nc2c(-c3ccccc3)nn(C(N)=S)c2C)c1C")
"f"
>>> label_class("CC1(C)C(CC(=O)O)CCCC1CC(=O)O (stereo not given)")
"f"
>>> label_class("O=C1C=C(c2ccccc2)C(c2ccccc2)=C1")
"f"
>>> label_class("O=c1cc(-c2ccccc2)[nH]c2[nH]n(-c3ccccc3)c(=O)c12")
"f"
>>> label_class("COc1cccc(NC(=O)CC(=O)N2N=C(N(CCC#N)c3ccc(Cl)cc3)CC2c2ccccc2)c1 (stereo not given)")
"f"
>>> label_class("O=C(C#Cc1ccccc1)N1c2ccccc2CC1c1c[nH]c2ccccc12 (stereo not given)")
"f"
>>> label_class("CC(C(N)=O)C(=O)c1ccccc1 (stereo not given)")
"f"
>>> label_class("Cn1c(=O)c2c(ncn2CCNCC(O)c2cc(C(C)(C)C)c(O)c(C(C)(C)C)c2)n(C)c1=O (stereo not given)")
"f"
>>> label_class("Nc1ccc(S(=O)(=O)NO)cc1")
"f"
>>> label_class("CC(C)(C)C(Br)CC(N)=O (stereo not given)")
"f"
>>> label_class("O=C(NC(=S)Nc1cc(C(F)(F)F)ccc1Cl)c1ccccc1F")
"f"
>>> label_class("CCCCCCCCCCCCCCCCS(=O)(=O)c1ccc(S(=O)(=O)CS(C)(=O)=O)cc1[N+](=O)[O-]")
"f"
>>> label_class("CC(C)C1C(O)C23CCC4C(C)(CO)CCCC4(C)C2CC13 (stereo not given)")
"f"
>>> label_class("CC(S)c1ccccc1 (stereo not given)")
"f"

Origin of values: PubChem BioAssay (NCI)
